Measured MIC Enterococcus faecalis (GC 2242) values are reported for all entries that follow.
- System: Enterococcus sp.
- method: in vitro antibacterial evaluation, MIC by broth dilution
- Format: cell-based
- condition.label: Enterococcus faecalis (GC 2242); broth dilution, 18 hours at 35° C.
property.label: MIC Enterococcus faecalis (GC 2242) (mg/L)

- compound: "CCCc1ccc(C2OCC3OC(OC4C(CO)OC(Oc5ccc(CC6NC(=O)C(C(C)c7ccccc7)NC(=O)CNC(=O)C(CO)NC(=O)C(C(O)C7CNC(=N)N7C7OC(CO)C(O)C(O)C7O)NC(=O)C(C(O)C7CNC(=N)N7)NC6=O)cc5)C(O)C4O)C(O)C(O)C3O2)cc1 (stereo not shown)"
  target.entity: "Enterococcus sp."
  property.label: "MIC Enterococcus faecalis (GC 2242)"
  units.of.measure: "mg/L"
  comparison.operator: "<"
  observed.value: 1
- compound: "CCCCCCC(=O)OCC1OC(Oc2ccc(CC3NC(=O)C(C(C)c4ccccc4)NC(=O)CNC(=O)C(CO)NC(=O)C(C(O)C4CNC(=N)N4C4OC(CO)C(O)C(O)C4O)NC(=O)C(C(O)C4CNC(=N)N4)NC3=O)cc2)C(O)C(O)C1OC1OC(CO)C(O)C(O)C1O (stereo not shown) [Example 97a]"
  target.entity: "Enterococcus sp."
  property.label: "MIC Enterococcus faecalis (GC 2242)"
  units.of.measure: "mg/L"
  comparison.operator: "="
  observed.value: 4
- compound: "CC(c1ccccc1)C1NC(=O)CNC(=O)C(CO)NC(=O)C(C(O)C2CNC(=N)N2C2OC(CO)C(O)C(O)C2O)NC(=O)C(C(O)C2CNC(=N)N2)NC(=O)C(Cc2ccc(OC3OC(CO)C(OC4OC5COC(c6ccc7c(c6)OCCO7)OC5C(O)C4O)C(O)C3O)cc2)NC1=O (stereo not shown)"
  target.entity: "Enterococcus sp."
  property.label: "MIC Enterococcus faecalis (GC 2242)"
  units.of.measure: "mg/L"
  comparison.operator: "="
  observed.value: 8
- compound: "N=C1NCC(C(O)C2NC(=O)C(Cc3ccc(OC4OC(CO)C(OC5OC(CO)C(O)C6OC7(OC56)C5CC6CC(C5)CC7C6)C(O)C4O)cc3)NC(=O)C(CC3CCCCC3)NC(=O)CNC(=O)C(CO)NC(=O)C(C(O)C3CNC(=N)N3C3OC(CO)C(O)C(O)C3O)NC2=O)N1 (stereo not shown) [Example 106a]"
  target.entity: "Enterococcus sp."
  property.label: "MIC Enterococcus faecalis (GC 2242)"
  units.of.measure: "mg/L"
  comparison.operator: "="
  observed.value: 4
- compound: "CSc1ccc(C2OCC3OC(OC4C(CO)OC(Oc5ccc(CC6NC(=O)C(C(C)c7ccccc7)NC(=O)CNC(=O)C(CO)NC(=O)C(C(O)C7CNC(=N)N7C7OC(CO)C(O)C(O)C7O)NC(=O)C(C(O)C7CNC(=N)N7)NC6=O)cc5)C(O)C4O)C(O)C(O)C3O2)cc1 (stereo not shown)"
  target.entity: "Enterococcus sp."
  property.label: "MIC Enterococcus faecalis (GC 2242)"
  units.of.measure: "mg/L"
  comparison.operator: "="
  observed.value: 2
- compound: "CCCCCCC(=O)OCC1OC(N2C(=N)NCC2C(O)C2NC(=O)C(C(O)C3CNC(=N)N3)NC(=O)C(Cc3ccc(OC4OC(CO)C(OC5OC(CO)C(O)C(O)C5O)C(O)C4O)cc3)NC(=O)C(C(C)c3ccccc3)NC(=O)CNC(=O)C(CO)NC2=O)C(O)C(O)C1O (stereo not shown)"
  target.entity: "Enterococcus sp."
  property.label: "MIC Enterococcus faecalis (GC 2242)"
  units.of.measure: "mg/L"
  comparison.operator: ">"
  observed.value: 64
- compound: "N=C1NCC(C(O)C2NC(=O)C(Cc3ccc(OC4OC(CO)C(OC5OC6COC7(OC6C6OC8(OC56)C5CC6CC(C5)CC8C6)C5CC6CC(C5)CC7C6)C(O)C4O)cc3)NC(=O)C(CC3CCCCC3)NC(=O)CNC(=O)C(CO)NC(=O)C(C(O)C3CNC(=N)N3C3OC(CO)C(O)C(O)C3O)NC2=O)N1 (stereo not shown) [Example 106b]"
  target.entity: "Enterococcus sp."
  property.label: "MIC Enterococcus faecalis (GC 2242)"
  units.of.measure: "mg/L"
  comparison.operator: "="
  observed.value: 8
